- Test system: BaF3 KIF5B-RET_G810R (Homo sapiens, UniProt P07949, G810R, cells depend on it)
- Construct: fused on or other part: P33176 (Kinesin-1 heavy chain)
- Sequence (P07949 whole entry G810R, the tested form may be a part): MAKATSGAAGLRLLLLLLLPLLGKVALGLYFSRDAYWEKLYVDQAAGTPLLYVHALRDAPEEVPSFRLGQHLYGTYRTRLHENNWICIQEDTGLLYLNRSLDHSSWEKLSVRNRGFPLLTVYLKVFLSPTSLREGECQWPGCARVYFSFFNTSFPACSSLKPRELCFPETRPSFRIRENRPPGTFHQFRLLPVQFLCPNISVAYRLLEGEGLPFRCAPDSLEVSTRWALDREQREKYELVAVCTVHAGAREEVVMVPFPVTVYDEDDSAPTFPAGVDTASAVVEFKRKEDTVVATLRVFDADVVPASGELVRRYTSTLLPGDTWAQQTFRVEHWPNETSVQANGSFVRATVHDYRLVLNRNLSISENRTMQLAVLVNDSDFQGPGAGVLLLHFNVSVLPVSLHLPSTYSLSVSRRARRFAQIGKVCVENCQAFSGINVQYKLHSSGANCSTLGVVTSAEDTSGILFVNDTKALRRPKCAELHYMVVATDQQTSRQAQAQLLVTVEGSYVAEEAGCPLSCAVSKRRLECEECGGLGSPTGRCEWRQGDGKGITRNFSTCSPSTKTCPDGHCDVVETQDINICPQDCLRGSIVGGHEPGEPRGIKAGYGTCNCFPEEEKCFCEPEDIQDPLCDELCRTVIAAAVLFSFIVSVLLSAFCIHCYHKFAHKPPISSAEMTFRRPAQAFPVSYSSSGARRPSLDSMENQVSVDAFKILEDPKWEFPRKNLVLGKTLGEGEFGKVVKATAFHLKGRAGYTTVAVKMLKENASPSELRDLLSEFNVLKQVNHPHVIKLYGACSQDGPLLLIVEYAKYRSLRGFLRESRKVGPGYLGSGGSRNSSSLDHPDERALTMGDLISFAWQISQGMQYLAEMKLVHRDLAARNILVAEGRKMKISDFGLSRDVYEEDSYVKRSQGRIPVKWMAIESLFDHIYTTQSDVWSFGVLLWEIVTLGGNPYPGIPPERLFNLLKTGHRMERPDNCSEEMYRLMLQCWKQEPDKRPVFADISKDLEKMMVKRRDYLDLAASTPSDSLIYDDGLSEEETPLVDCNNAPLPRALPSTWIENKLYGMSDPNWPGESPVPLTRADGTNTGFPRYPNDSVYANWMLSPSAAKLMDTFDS
- Assay procedure: Cell proliferation assay (CellTiter-Glo, 72 hours)
- Assay type: cell-based
- Experimental parameters: anti-cell proliferation, read-out: BaF3 KIF5B-RET_G810R IC50
Task for the reader: assign each of the following compounds its reported GI50.
Give bare numbers, in nM.

Example cases with answers are listed next.
Smiles input: C[C@@H]1COc2ncc(F)cc2CN2c3nc4c(cnn4cc3O[C@H]3CCC[C@H]32)C(=O)N1
Test system: BaF3 KIF5B-RET_G810R (Homo sapiens, UniProt P07949, G810R, cells depend on it)
U: nM
GI50: 3
--
Smiles input: C[C@H]1CNC(=O)c2cnn3cc4c(nc23)N(Cc2cc(F)cnc2O1)[C@@H]1CCCC[C@@H]1O4
Test system: BaF3 KIF5B-RET_G810R (Homo sapiens, UniProt P07949, G810R, cells depend on it)
U: nM
GI50: 1010
--
Smiles input: O=C1NC2(CCCC2)COc2ncc(F)cc2CN2c3nc4c1cnn4cc3O[C@H]1CCC[C@H]12
Test system: BaF3 KIF5B-RET_G810R (Homo sapiens, UniProt P07949, G810R, cells depend on it)
U: nM
GI50: 323
--
Smiles input: O=C1NC[C@@H](F)COc2ncc(F)cc2CN2c3nc4c1cnn4cc3O[C@H]1CCC[C@H]12
Test system: BaF3 KIF5B-RET_G810R (Homo sapiens, UniProt P07949, G810R, cells depend on it)
U: nM
GI50: 57.3

Hey, can you go through the list below and give me GI50 for every item?
1. O=C1NC2(CC2)COc2ncc(F)cc2CN2c3nc4c1cnn4cc3O[C@H]1CCC[C@H]12
2. C[C@@H]1CCOc2ncc(F)cc2CN2c3nc4c(cnn4cc3O[C@H]3CCC[C@H]32)C(=O)N1
3. O=C1NCC2(CCC2)COc2ncc(F)cc2CN2c3nc4c1cnn4cc3O[C@H]1CCC[C@H]12
4. C[C@@H]1COc2c(F)cc(F)cc2CN2c3nc4c(cnn4cc3O[C@H]3CCC[C@H]32)C(=O)N1
5. C[C@H]1CNC(=O)c2cnn3cc4c(nc23)N(Cc2cc(F)cnc2O1)[C@@H]1CCC[C@@H]1O4
6. O=C1NC2(COc3ncc(F)cc3CN3c4nc5c1cnn5cc4O[C@H]1CCC[C@H]13)CC(F)(F)C2

A:
24.4
41.2
422
99.2
22
559

Hey, can you go through the list below and give me GI50 for every item?
1. O=C1NC[C@@H](CO)Oc2ncc(F)cc2CN2c3nc4c1cnn4cc3O[C@H]1CCC[C@H]12
2. CC1(C)CNC(=O)c2cnn3cc4c(nc23)N(Cc2cc(F)cnc2OC1)[C@@H]1CCC[C@@H]1O4

A:
[1640, 63]

====

- Test system: BaF3 KIF5B-RET_V804M (Homo sapiens, UniProt P07949, V804M, cells depend on it)
- Construct: fused on or other part: P33176 (Kinesin-1 heavy chain)
- Sequence (P07949 whole entry V804M, the tested form may be a part): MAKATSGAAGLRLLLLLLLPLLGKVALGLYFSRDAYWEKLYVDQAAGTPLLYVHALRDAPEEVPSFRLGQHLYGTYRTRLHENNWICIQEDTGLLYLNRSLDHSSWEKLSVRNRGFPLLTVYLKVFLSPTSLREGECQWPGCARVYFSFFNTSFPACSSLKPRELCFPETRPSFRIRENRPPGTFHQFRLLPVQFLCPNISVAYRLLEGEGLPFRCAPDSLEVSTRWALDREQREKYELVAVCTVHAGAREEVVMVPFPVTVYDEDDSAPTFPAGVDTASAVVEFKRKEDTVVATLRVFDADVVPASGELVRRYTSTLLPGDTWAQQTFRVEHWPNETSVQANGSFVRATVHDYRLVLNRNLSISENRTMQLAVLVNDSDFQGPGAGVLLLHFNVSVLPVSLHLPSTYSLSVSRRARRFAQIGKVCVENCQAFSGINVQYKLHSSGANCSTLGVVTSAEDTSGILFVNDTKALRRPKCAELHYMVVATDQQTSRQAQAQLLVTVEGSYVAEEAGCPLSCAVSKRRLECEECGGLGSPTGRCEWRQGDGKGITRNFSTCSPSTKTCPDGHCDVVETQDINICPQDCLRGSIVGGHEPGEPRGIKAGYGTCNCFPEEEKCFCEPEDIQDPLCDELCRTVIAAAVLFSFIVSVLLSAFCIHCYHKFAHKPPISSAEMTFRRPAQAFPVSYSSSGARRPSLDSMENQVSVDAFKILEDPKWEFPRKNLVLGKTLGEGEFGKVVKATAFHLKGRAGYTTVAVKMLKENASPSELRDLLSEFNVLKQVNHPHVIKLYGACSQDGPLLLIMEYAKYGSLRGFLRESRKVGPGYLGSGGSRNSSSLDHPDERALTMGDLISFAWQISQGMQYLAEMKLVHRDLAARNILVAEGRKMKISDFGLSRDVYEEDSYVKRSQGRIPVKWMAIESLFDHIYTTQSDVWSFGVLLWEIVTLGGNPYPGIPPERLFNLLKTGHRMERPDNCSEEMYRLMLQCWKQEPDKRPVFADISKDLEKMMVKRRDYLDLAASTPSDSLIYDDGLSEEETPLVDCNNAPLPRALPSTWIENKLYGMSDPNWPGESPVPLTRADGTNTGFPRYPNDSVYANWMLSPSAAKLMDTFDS
- Assay procedure: Cell proliferation assay (CellTiter-Glo, 72 hours)
- Type: cell-based
- Experimental parameters: anti-cell proliferation, read-out: BaF3 KIF5B-RET_V804M IC50
Lab note: compare GI50 with 2000 nM, writing true if less and false if equal or more.

Smiles input: C[C@H]1CNC(=O)c2cnn3cc4c(nc23)N(Cc2cc(F)cnc2O1)[C@H]1COC[C@H]1O4
Qualitative label: false

Q: # strict comparison: is reported GI50 < 2000 nM? input = C[C@@H]1COc2ncc(F)cc2CN2c3nc4c(cnn4cc3O[C@H]3CCCC[C@H]32)C(=O)N1
A: false

Q: # strict comparison: is reported GI50 < 2000 nM? input = C[C@@H]1CNC(=O)c2cnn3cc4c(nc23)N(Cc2cc(F)cnc2O1)[C@H]1CCC[C@H]1O4
A: false

This collection of values is drawn from patent US10745416B2.
